Listed here are molecules together with their documented hERG current change (%, negative = inhibition) at 10uM.
Biological target: human ether-à-go-go-related gene (hERG) potassium channel (human);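 also: peak tail current of the secondary pulse compared with the same well before compound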
Sequence (Q12809 whole entry, looked up): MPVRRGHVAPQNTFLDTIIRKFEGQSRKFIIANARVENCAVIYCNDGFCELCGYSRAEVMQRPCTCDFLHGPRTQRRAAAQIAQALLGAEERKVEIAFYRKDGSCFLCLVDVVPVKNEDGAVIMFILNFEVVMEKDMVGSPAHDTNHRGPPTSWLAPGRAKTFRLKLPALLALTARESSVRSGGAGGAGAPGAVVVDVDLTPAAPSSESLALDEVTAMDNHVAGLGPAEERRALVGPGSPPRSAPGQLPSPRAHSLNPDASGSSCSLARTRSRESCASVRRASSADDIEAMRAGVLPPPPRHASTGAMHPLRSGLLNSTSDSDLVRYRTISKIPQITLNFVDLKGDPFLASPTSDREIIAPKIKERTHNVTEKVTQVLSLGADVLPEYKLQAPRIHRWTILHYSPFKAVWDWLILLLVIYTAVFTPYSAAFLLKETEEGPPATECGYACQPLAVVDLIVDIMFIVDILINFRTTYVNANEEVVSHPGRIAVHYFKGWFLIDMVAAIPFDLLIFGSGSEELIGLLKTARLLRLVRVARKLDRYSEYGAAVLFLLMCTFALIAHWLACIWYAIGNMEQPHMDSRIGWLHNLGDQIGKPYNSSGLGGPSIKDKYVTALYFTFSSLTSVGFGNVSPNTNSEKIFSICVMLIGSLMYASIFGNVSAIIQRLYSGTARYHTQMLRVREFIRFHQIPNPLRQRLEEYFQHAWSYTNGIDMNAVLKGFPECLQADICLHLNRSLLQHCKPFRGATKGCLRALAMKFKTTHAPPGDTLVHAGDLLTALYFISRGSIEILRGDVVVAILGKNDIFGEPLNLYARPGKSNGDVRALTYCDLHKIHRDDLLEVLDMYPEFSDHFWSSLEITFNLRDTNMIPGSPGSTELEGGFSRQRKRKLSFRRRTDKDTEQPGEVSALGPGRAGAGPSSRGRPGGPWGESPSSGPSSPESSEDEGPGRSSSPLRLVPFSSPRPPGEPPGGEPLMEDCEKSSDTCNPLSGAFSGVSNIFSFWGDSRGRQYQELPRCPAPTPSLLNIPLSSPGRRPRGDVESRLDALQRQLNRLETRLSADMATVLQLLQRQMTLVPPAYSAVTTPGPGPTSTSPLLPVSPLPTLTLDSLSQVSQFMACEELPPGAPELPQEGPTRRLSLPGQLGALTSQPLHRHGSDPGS
Test: primary screen, population patch clamp on CHO cells stably expressing hERG; higher = less effect of the substance
The campaign covered roughly 310,000 compounds. About 14,000 (4.5%) showed an effect of 50% or more. Effects have a minus sign here. Only a selection was taken, and strong results are over-represented in it overall.
Report the figure in % without appending any unit label.

Answered examples (3):
{"molecule": "COc1cccc(N2CCN(C3C4CC5CC(C4)CC3C5)CC2)c1 (stereo not drawn)", "observedMeasurement": 2.54}
{"molecule": "Cc1ccc(NC(=O)/C(=C\\c2cccnc2)NC(=O)c2ccco2)cc1", "observedMeasurement": -28.5}
{"molecule": "c1coc(CNc2ncnc3sc4c(c23)CCCCC4)c1", "observedMeasurement": -39.4}

Which hERG current change (%, negative = inhibition) at 10uM is reported with human ether-à-go-go-related gene (hERG) potassium channel (human) for this entry: O=C(COC(=O)CNC(=O)c1ccco1)Nc1ccccc1OC(F)F ?
11.6

Item: CCCCCn1cnc2c(sc3nc4c(cc32)CSC(C)(C)C4)c1=O Test system: human ether-à-go-go-related gene (hERG) potassium channel (human) Read-out: hERG current change (%, negative = inhibition) at 10uM Value: ?;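 also: peak tail current of the secondary pulse compared with the same well before compound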
-14.5

Short answer please: hERG current change (%, negative = inhibition) at 10uM, human ether-à-go-go-related gene (hERG) potassium channel (human), entry CC1Cc2ccccc2N1C(=O)COC(=O)c1ccc(Br)o1 (stereo not drawn)
8.05
